Reported values of Affinity ELISA CPE mutant ratio (1:3, pH 6.0/7.4) for individual entries
tested.on: T1, Axl protein (human, UniProt P30530 26-451)
T1 construct: extracellular domain; also called human Axl; hAxl
T1 sequence (looked up): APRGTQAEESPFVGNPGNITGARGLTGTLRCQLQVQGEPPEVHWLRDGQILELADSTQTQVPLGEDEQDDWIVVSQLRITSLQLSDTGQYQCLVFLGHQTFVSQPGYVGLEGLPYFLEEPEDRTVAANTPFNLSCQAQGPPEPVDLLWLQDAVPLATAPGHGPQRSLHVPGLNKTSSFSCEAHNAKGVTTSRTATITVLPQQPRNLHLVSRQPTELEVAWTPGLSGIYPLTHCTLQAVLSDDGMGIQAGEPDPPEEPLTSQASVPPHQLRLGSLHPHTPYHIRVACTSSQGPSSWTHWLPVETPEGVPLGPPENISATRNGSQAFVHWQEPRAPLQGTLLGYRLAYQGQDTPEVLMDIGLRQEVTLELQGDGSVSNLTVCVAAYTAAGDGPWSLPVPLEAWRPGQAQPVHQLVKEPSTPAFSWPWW
assay.overview: ELISA, 1:3 dilution, pH 6.0 over pH 7.4
observable: Affinity ELISA CPE mutant ratio (1:3, pH 6.0/7.4) (ratio)

[
  {
    "binder": "LC-F092G (antibody, V domains shown) VH: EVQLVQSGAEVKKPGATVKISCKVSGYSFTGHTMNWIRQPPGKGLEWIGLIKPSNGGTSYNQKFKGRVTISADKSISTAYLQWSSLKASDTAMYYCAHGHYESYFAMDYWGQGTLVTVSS VL: DIQMTQSPSSLSASVGDRVTITCKASQDVSSAVAWYQQKPGQAPRLLIYWASTRHTGVPSRFSGSGSGTEFTLTISSLQPDDFATYYCQEHGSTPLTFGQGTKVEIK",
    "units.of.measure": "ratio",
    "meas.value": 3.69
  },
  {
    "binder": "LC-P095E (antibody, V domains shown) VH: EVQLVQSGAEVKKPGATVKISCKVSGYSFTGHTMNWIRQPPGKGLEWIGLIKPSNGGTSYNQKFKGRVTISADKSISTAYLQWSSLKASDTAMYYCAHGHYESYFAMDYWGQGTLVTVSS VL: DIQMTQSPSSLSASVGDRVTITCKASQDVSSAVAWYQQKPGQAPRLLIYWASTRHTGVPSRFSGSGSGTEFTLTISSLQPDDFATYYCQEHFSTELTFGQGTKVEIK",
    "units.of.measure": "ratio",
    "meas.value": 7.12
  },
  {
    "binder": "LC-H091I (antibody, V domains shown) VH: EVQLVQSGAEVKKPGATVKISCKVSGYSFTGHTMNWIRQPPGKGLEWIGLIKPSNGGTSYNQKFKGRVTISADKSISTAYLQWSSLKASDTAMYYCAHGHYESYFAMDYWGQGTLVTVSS VL: DIQMTQSPSSLSASVGDRVTITCKASQDVSSAVAWYQQKPGQAPRLLIYWASTRHTGVPSRFSGSGSGTEFTLTISSLQPDDFATYYCQEIFSTPLTFGQGTKVEIK",
    "units.of.measure": "ratio",
    "meas.value": 1.55
  },
  {
    "binder": "LC-A032L (antibody, V domains shown) VH: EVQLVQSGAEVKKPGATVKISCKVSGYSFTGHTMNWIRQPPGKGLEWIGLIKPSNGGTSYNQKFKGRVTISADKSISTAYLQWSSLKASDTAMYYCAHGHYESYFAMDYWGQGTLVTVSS VL: DIQMTQSPSSLSASVGDRVTITCKASQDVSSLVAWYQQKPGQAPRLLIYWASTRHTGVPSRFSGSGSGTEFTLTISSLQPDDFATYYCQEHFSTPLTFGQGTKVEIK",
    "units.of.measure": "ratio",
    "meas.value": 1.98
  },
  {
    "binder": "LC-P095C (antibody, V domains shown) VH: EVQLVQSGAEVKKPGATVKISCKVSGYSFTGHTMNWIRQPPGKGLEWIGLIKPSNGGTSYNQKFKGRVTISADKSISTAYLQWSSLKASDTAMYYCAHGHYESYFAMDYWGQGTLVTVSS VL: DIQMTQSPSSLSASVGDRVTITCKASQDVSSAVAWYQQKPGQAPRLLIYWASTRHTGVPSRFSGSGSGTEFTLTISSLQPDDFATYYCQEHFSTCLTFGQGTKVEIK",
    "units.of.measure": "ratio",
    "meas.value": 2.35
  }
]
